Test system: SK-MEL-2
Test: NCI tumour cell line growth inhibition, 48 h
Active and inactive are the calls of the source. No stated cut-off is given here; in the data, active = GI50 up to about 1.1 µM and inactive = higher.
# maps each entry to its GI50

Worked set:
molecule	target_system	GI50
CC1=C(CCC(C)CO)O[C@H]2C[C@H]3[C@@H]4CC[C@H]5C[C@@H](O)CC[C@]5(C)[C@H]4CC(=O)[C@]3(C)[C@@H]12 (stereo not given in full)	SK-MEL-2	11.7 µM (inactive)
CC1=C(Br)C(=O)c2c(O)ccc(O)c2C1=O	SK-MEL-2	5.83 µM (inactive)
O=c1c2cc(Br)ccc2nc(CCl)n1-c1ccc(O)c([N+](=O)[O-])c1	SK-MEL-2	16 µM (inactive)

Look at this molecule and give its reported GI50. `C[n+]1ccn2c3nc4ccccc4nc3c([O-])c(C#N)c21`
> 4.65 µM (inactive)

Sample `CCN(CCCOc1ccccc1)CCN(CC)CCCOc1ccccc1` — what was its GI50?
17.9 µM (inactive)

# input molecule: N#CC(OC1OC(COC2OC(CO)C(O)C(O)C2O)C(O)C(O)C1O)c1ccccc1 (stereo not given) ; wanted: its GI50
> 225 µM (inactive)

// query GI50 value for entry CC1CN=C(N(C)C(=O)Nc2ccc(Cl)cc2)S1 (stereo not given)
15.4 µM (inactive)

Please look up its GI50: C=CCNC(=S)N1c2ccccc2NC(=O)CC1C (stereo not given)
> 100 µM (inactive)

Record request: GI50 value, item `CCOC(=O)c1ccc(/N=C2\SC(=S)N(c3ccc(F)cc3)\C2=N/c2ccc(C(=O)OCC)cc2)cc1`
12.9 µM (inactive)

Any idea what GI50 was measured for `O=P1(Cc2ccccc2)N(Cc2ccccc2)[C@@H]2CCCC[C@H]2N1Cc1ccccc1` ?
11.2 µM (inactive)

----------
Tested on: LOX IMVI
Assay: NCI tumour cell line growth inhibition, 48 h
The source made the active and inactive calls. Rule as the data show it: active = GI50 up to about 1.1 µM and inactive = higher.
Respond with a class label; see 1 for active, 0 for inactive

compound	target_system	class_assignment
C=CCCC12CCCC(=O)C1Sc1ccc3ccccc3c12 (configuration not stated)	LOX IMVI	0

Outcome? `Oc1ccc(/C=N/N=c2\[nH][nH]/c(=N\N=C\c3ccc(O)cc3O)c3ccccc23)c(O)c1`
1

Field: outcome | Entry: CC(=O)OCC1=C(CCC#N)N2C(=O)C(NC(=O)Cc3cccs3)C2[S+]([O-])C1 (configuration not stated)
0

Record request — test call for C=C1CCc2occ(C)c2C2C1C1=C(CC(C)C1=O)C1OC12C (configuration not stated)
0

Outcome? CCC1OC2(C)CC(C#N)(C#N)C1(C#N)C(=N)O2 (configuration not stated)
0

----------
Recorded GI50, one value per entry.
Tested on: SNB-75
Test: NCI tumour cell line growth inhibition, 48 h
The source made the active and inactive calls. No stated cut-off is given here; in the data, active = GI50 up to about 1.1 µM and inactive = higher.

molecule	value_type	result
O=C1c2ccccc2C(=O)N1CC1S(=O)(=O)OCCOS1(=O)=O	GI50	> 100 µM (inactive)

Could you now consider this next molecule?
I am curious: what GI50 value has been reported for `Oc1ccc2ccccc2c1/N=N/c1cc(Cl)ccc1Cl` ?
11.3 µM (inactive)

----------
Tested on: SF-295
Test: NCI tumour cell line growth inhibition, 48 h
The source made the active and inactive calls. Cut-off read from the data, not from the text of the source: active = GI50 up to about 1.1 µM and inactive = higher.
value_type: GI50

The following compounds have reported results that may help.
compound	GI50
CC1=CC(=O)c2ccc(C)cc2C1=O	17.2 µM (inactive)
CN(C)c1ccc(/C=C/C(=O)O)cc1	> 100 µM (inactive)
N#CCCSC1SC(=C2SC3=C(SCCS3)S2)SC1SCCC#N (stereo not given)	> 100 µM (inactive)

Would you kindly share the measured GI50 for `C[n+]1ccn2c3nc4ccccc4nc3c([O-])c(C#N)c21` ?
> 100 µM (inactive)

Any idea what its GI50 is? The compound is `O=C1OC[C@H]2[C@@H]1[C@H]1O[C@@H]2C2=C(CCC2)C1=O`
> 100 µM (inactive)

Query (compound): `CCOC(=O)C(=[N+]=[N-])C(=O)Nc1nn2nnnc2c2ccccc12` ; field requested: GI50
> 100 µM (inactive)

----------
Each entry below lists one item and its recorded GI50 value.
System: RXF 393
Assay: NCI tumour cell line growth inhibition, 48 h
Active and inactive are the calls of the source. Cut-off read from the data, not from the text of the source: active = GI50 up to about 1.1 µM and inactive = higher.

Example entries and their recorded answers appear below.
molecule	target_system	GI50
CC1=C(C(=O)Nc2ccccc2)C2(CCCCC2)C(C#N)=C(SCC(=O)Nc2ccc(Br)cc2)N1	RXF 393	4.54 µM (inactive)
Cc1ccc(/N=N/c2ccc(O)c(CN(C)C)c2)cc1C	RXF 393	17.5 µM (inactive)
COc1cccc2nc3ccccc3nc12	RXF 393	39.3 µM (inactive)
CCCC(=O)N1CCN(c2ccc3c(c2)OC(C)O3)CC1 (stereo not given)	RXF 393	> 100 µM (inactive)
N#CC(OC1OC(COC2OC(CO)C(O)C(O)C2O)C(O)C(O)C1O)c1ccccc1 (stereo not given)	RXF 393	> 225 µM (inactive)

Short answer please: GI50, RXF 393, entry C=CCCC12CCCC(=O)C1Sc1ccc3ccccc3c12 (stereo not given)
12.2 µM (inactive)

Recorded GI50 for `C#CC[C@]12CC(=O)CC[C@H]1CC(=O)C2` with RXF 393, please?
> 100 µM (inactive)

What reported GI50 corresponds to `O=[N+]([O-])c1cccc(-c2cn3c(n2)Cc2ccccc2C3)c1` on RXF 393?
> 100 µM (inactive)

Give GI50 (RXF 393) of the following molecule: `CO/C(=N\N=C\c1cccc(Cl)c1)c1ccncc1`
> 10 µM (inactive)

Item CC(C)CCC[C@@H](C)[C@H]1CC[C@H]2[C@@H]3CC=C4CC(OCCCCN(O)CCCSC5OC(CO)C(O)C(O)C5O)CC[C@]4(C)[C@H]3CC[C@]12C (stereo not given in full) with RXF 393 - GI50?
79.3 µM (inactive)

----------
GI50 for assorted compounds
System: HCC 2998
Assay: NCI tumour cell line growth inhibition, 48 h
Active and inactive are the calls of the source. No stated cut-off is given here; in the data, active = GI50 up to about 1.1 µM and inactive = higher.

Solved entries:
compound	value_type	result
Cc1ccc(S(=O)(=O)N(CCNC(=O)c2cccc(O)c2O)c2cc3c4c(c2)Oc2cccc5c2C4(C)c2c(cccc2O3)O5)cc1	GI50	> 100 µM (inactive)
CC(=O)N1C(=O)c2cc3ccccc3cc21	GI50	> 100 µM (inactive)
O=C1N/C(=N/N=C/C(O)C(O)C(O)CO)N/C1=C\c1ccco1 (stereo not given)	GI50	> 100 µM (inactive)

// map `Cl[Si]1(Cl)Oc2ccccc2O[Si](Cl)(Cl)Oc2ccccc2O1` to recorded GI50 (system: HCC 2998)
20.7 µM (inactive)

Request - read-out GI50 | tested on HCC 2998 | compound CC(=O)OC(C)c1cc2c(s1)C(=O)c1sccc1C2=O (stereo not given)
1.99 µM (inactive)

Form entry - test system: HCC 2998; read-out: GI50; compound: CC1(C(=O)O)CCOc2ccccc21 (stereo not given)
> 100 µM (inactive)

Hello, I am looking for reported GI50 with HCC 2998 for CCN1CCC(O)(/C=C/c2ccc(Cl)cc2)C(C(=O)/C=C/c2ccc(Cl)cc2)C1 (stereo not given) . Could you help?
18.4 µM (inactive)

Any idea what GI50 came out for `CSc1nc(SC)c2c(C)cn(COCCOC(=O)c3ccccc3)c2n1` on HCC 2998?
> 100 µM (inactive)

So what GI50 did `CC(=O)Nc1ccccc1S(=O)(=O)c1c(-c2c(C)c(Cl)c(C)c(Cl)c2C)noc1C` get with HCC 2998?
90.4 µM (inactive)

Lab request: please report GI50 under test system HCC 2998 for `C=C(COC(=O)C(C)C)[C@H]1Oc2ccc(C(C)=O)cc2[C@@H]1OC(=O)C(C)C`
> 100 µM (inactive)

----------
System: MCF7
Test: NCI tumour cell line growth inhibition, 48 h
The source made the active and inactive calls. Rule as the data show it: active = GI50 up to about 1.1 µM and inactive = higher.
Thanks in advance; please answer with one of these: T (active), F (inactive)

As a guide, the following entries are already answered.
compound	class_assignment
CCOP(=O)(OCC)/C(C#N)=C/c1cccn1C	F
CCCCCCCN(CCCCCCC)CC(O)c1cc2ccccc2c2cc(Br)ccc12 (stereo unspecified)	F
O=C1ON=C2C3CC4CC12CC1(C3)C(=O)ON=C41	F
COC(=O)C1=C(C(=O)OC)SC2(S1)C(C(=O)OC)=C(C(=O)OC)Sc1c2ss/c1=N\c1ccc(Cl)cc1	T
C/C(=N\c1cc(Cl)cc(Cl)c1)c1ccncc1	F
O=C1c2ccccc2C(=O)N1CC1S(=O)(=O)OCCOS1(=O)=O	F
O=C(CCCN1CCC2(CC1)OC(=O)N(c1ccccc1)C2=O)c1ccccc1	F
NC(Cc1ccc(CP(=O)(O)O)cc1)C(=O)O (stereo unspecified)	F

Kindly provide the recorded test outcome for the following compound: `O=C(N/N=C\c1ccc([N+](=O)[O-])s1)c1ccncc1`
F

Hey, what did the test say about `CCOC(=O)/C(C(=O)Nc1ccc(Cl)cc1)=C(/N)N1CCOCC1` ?
F

// param item: `O=C(O)c1cscc1Cc1cccs1` ; yields the recorded call
F
